Answer each item with its documented melting point.

Respectfully, I request melting point for each entry included below.
1. N#CCCc1c(-c2ccccc2)c(=O)[nH]c2cc(Cl)ccc12
2. CC(=O)N1CC(CCN2CCC(c3ccccc3)CC2)c2ccccc21 (stereo not given)
3. CC(C)(C)OC(=O)N1CCCC(C(=O)OCC(=O)C(C)(C)C)(C(=O)OCc2ccccc2)C1 (stereo not given)
4. O=C1c2cc(O)ccc2CCN1Cc1cccnc1
5. COc1ccc(OCC(O)CNCCNc2c(C)c(=O)n(C)c(=O)n2C)cc1 (stereo not given)
6. CNCCC(=O)N1c2ccccc2N2CCc3cccc(c32)C1C (stereo not given)
7. O=C(CC(O)c1ccccc1)NCc1ccccc1[N+](=O)[O-] (stereo not given)
8. C[C@H]1C=CC(Sc2ccccc2)=CC[C@H]1O

Out:
252 to 254 °C
92 to 93 °C
60 °C
136 to 137 °C
115 to 117 °C
124 to 126 °C
145 °C
54 to 56 °C

Respectfully, I request melting point for each entry included below.
1. Cc1ccc2c(c1)[C@H]1Cc3ccccc3[C@H]1N2 (relative stereo)
2. O=C(Nc1ccc(F)cc1)N1CC=CCN1

Out:
1: 110 °C; 2: 100 to 101 °C
